pIC50 listing for selected compounds.
- Test system: Human immunodeficiency virus 1
- Assay Comment: Antiviral activity against HIV1 NL4.3 infected in MAGIC-5B cells after 48 hrs by beta-galactosidase reporter gene assay
- Format: functional, organism-based
- Run Conditions: Human immunodeficiency virus 1, NL4.3, 48 h
Answer as the number alone; pIC50 is minus log10 of concentration in mol/L.

Worked cases, answers included:
For record C=C(C)[C@@H]1CC[C@]2(C(=O)O)CC[C@]3(C)[C@H](CC[C@@H]4[C@@]5(C)CC[C@H](O)C(C)(C)[C@@H]5CC[C@]43C)[C@@H]12 [BETULINIC ACID] the listed pIC50 is 5.27

For record C=C(C)[C@@H]1CC[C@]2(C(=O)N[C@@H](CCCCN)C(=O)O)CC[C@]3(C)[C@H](CC[C@@H]4[C@@]5(C)CC[C@H](OC(=O)CC(C)(C)C(=O)O)C(C)(C)[C@@H]5CC[C@]43C)[C@@H]12 the listed pIC50 is 5.36

For record C=C(C)[C@@H]1CC[C@]2(C(=O)N[C@@H](CCCCNC(=O)OC(C)(C)C)C(=O)O)CC[C@]3(C)[C@H](CC[C@@H]4[C@@]5(C)CC[C@H](OC(=O)CC(C)(C)C(=O)O)C(C)(C)[C@@H]5CC[C@]43C)[C@@H]12 the listed pIC50 is 6.77

Continuing:
For record C=C(C)[C@@H]1CC[C@]2(C(=O)NCC(=O)O)CC[C@]3(C)[C@H](CC[C@@H]4[C@@]5(C)CC[C@H](OC(=O)CC(C)(C)C(=O)O)C(C)(C)[C@@H]5CC[C@]43C)[C@@H]12 the listed pIC50 is 6.80

For record C=C(C)[C@@H]1CC[C@]2(C(=O)NCCN)CC[C@]3(C)[C@H](CC[C@@H]4[C@@]5(C)CC[C@H](OC(=O)CC(C)(C)C(=O)O)C(C)(C)[C@@H]5CC[C@]43C)[C@@H]12 the listed pIC50 is 7.80

For record C=C(C)[C@@H]1CC[C@]2(C(=O)NCCC(=O)O)CC[C@]3(C)[C@H](CC[C@@H]4[C@@]5(C)CC[C@H](OC(=O)CC(C)(C)C(=O)O)C(C)(C)[C@@H]5CC[C@]43C)[C@@H]12 the listed pIC50 is 6.93
